# System: Staphylococcus aureus
# assay.protocol: Potentiation of oxacillin induced antibacterial activity against Staphylococcus aureus Mu50 NRS1 assessed as oxacillin MIC at 20 uM measured after 16 to 20 hrs in presence of 2% NaCl by microdilution broth method (reference value: 256 mg/L)
# Assay type: functional
parameter: MIC

Q: Which MIC value belongs to CS(=O)(=O)/C(C#N)=C/c1c(F)ccc(Cc2ccc(Cl)c(Cl)c2)c1F ?
Ans: ≤ 0.03 µg/mL

Q: Which MIC value belongs to N#C/C(=C\c1cc(Cc2ccc(Cl)c(Cl)c2)ccc1F)S(=O)(=O)c1ccccn1 ?
Ans: ≤ 0.03 µg/mL

Q: Which MIC value belongs to CS(=O)(=O)/C(C#N)=C/c1cc(Cc2ccc(Cl)c(Cl)c2)ccc1OC(F)(F)F ?
Ans: ≤ 0.03 µg/mL
